System: skin cancer cell line, A431
Assay: Inhibitory effect on growth of cancer cell line A431, SRB
Format: cell-based
Conditions: Homo sapiens, A-431, 72 h, overexpressed EGFR1 (HER-1)

- STRUCTURE_AS_SMILES: "C=CC(=O)Nc1cc2c(Nc3ccc(Br)c(Cl)c3F)ncnc2cc1OCCNC(=O)CO"
  READOUT_UNITS: "nM"
  IC50: 15
- STRUCTURE_AS_SMILES: "C=CCNC(=O)NCCOc1cc2ncnc(Nc3ccc(Br)cc3F)c2cc1NC(=O)C=C"
  READOUT_UNITS: "nM"
  IC50: 13
- STRUCTURE_AS_SMILES: "C=CC(=O)Nc1cc2c(Nc3ccc(Br)cc3F)ncnc2cc1OCCNC(=O)CC"
  READOUT_UNITS: "nM"
  IC50: 30
- STRUCTURE_AS_SMILES: "C=CC(=O)Nc1cc2c(Nc3ccc(Br)cc3F)ncnc2cc1OCCN"
  READOUT_UNITS: "nM"
  IC50: 46

* * *

System: skin cancer cell line, A431
Experiment: Inhibitory effect on growth of cancer cell line A431, SRB
Assay type: cell-based
Settings: Homo sapiens, A-431, 72 h, overexpressed EGFR1 (HER-1)

- COMPOUND: "C=CC(=O)Nc1cc2c(Nc3ccc(Br)cc3F)ncnc2cc1OCC(CC)NC(C)=O (centres unmarked)"
  TARGET_SYSTEM: "skin cancer cell line, A431"
  IC50: "71 nM"
- COMPOUND: "C=CC(=O)Nc1cc2c(Nc3ccc(Br)c(Cl)c3F)ncnc2cc1OCCNC(=O)CC"
  TARGET_SYSTEM: "skin cancer cell line, A431"
  IC50: "15 nM"
- COMPOUND: "C=CC(=O)Nc1cc2c(Nc3cccc(Cl)c3F)ncnc2cc1OCCNC(=O)CN(C)C"
  TARGET_SYSTEM: "skin cancer cell line, A431"
  IC50: "1240 nM"
- COMPOUND: "C=CC(=O)Nc1cc2c(Nc3ccc(Br)cc3F)ncnc2cc1OCC1CCN(C(C)=O)CC1"
  TARGET_SYSTEM: "skin cancer cell line, A431"
  IC50: "48 nM"
- COMPOUND: "C=CC(=O)Nc1cc2c(Nc3ccc(Br)cc3F)ncnc2cc1OCC1CCN(C(=O)NCC)CC1"
  TARGET_SYSTEM: "skin cancer cell line, A431"
  IC50: "25 nM"
- COMPOUND: "C=CC(=O)Nc1cc2c(Nc3ccc(Br)cc3F)ncnc2cc1OC(C)CNC(C)=O (centres unmarked)"
  TARGET_SYSTEM: "skin cancer cell line, A431"
  IC50: "41 nM"
- COMPOUND: "C=CC(=O)Nc1cc2c(Nc3ccc(Br)cc3F)ncnc2cc1OC1CCN(C(C)=O)C1 (centres unmarked)"
  TARGET_SYSTEM: "skin cancer cell line, A431"
  IC50: "99 nM"
- COMPOUND: "C=CC(=O)Nc1cc2c(Nc3ccc(Br)cc3F)ncnc2cc1OCC1CCN(C(=O)CN(C)C)CC1"
  TARGET_SYSTEM: "skin cancer cell line, A431"
  IC50: "8 nM"
- COMPOUND: "C=CC(=O)Nc1cc2c(Nc3ccc(Br)cc3F)ncnc2cc1OCCNC(=O)C(F)F"
  TARGET_SYSTEM: "skin cancer cell line, A431"
  IC50: "45 nM"
- COMPOUND: "C=CC(=O)Nc1cc2c(Nc3ccc(Br)cc3F)ncnc2cc1OCCNC(=O)N1CCOCC1"
  TARGET_SYSTEM: "skin cancer cell line, A431"
  IC50: "46 nM"
- COMPOUND: "C=CC(=O)Nc1cc2c(Nc3ccc(Br)cc3F)ncnc2cc1OCCNC(=O)CCN(CC)CC"
  TARGET_SYSTEM: "skin cancer cell line, A431"
  IC50: "45 nM"
- COMPOUND: "C=CC(=O)Nc1cc2c(Nc3ccc(Br)cc3C(F)(F)F)ncnc2cc1OCCNC(C)=O"
  TARGET_SYSTEM: "skin cancer cell line, A431"
  IC50: "468 nM"
- COMPOUND: "C=CC(=O)Nc1cc2c(Nc3ccc(Br)cc3F)ncnc2cc1OCCN(C)C(C)=O"
  TARGET_SYSTEM: "skin cancer cell line, A431"
  IC50: "63 nM"
- COMPOUND: "C=CC(=O)Nc1cc2c(Nc3ccc(Br)cc3F)ncnc2cc1OCCNC(=O)CCN1CCCCC1"
  TARGET_SYSTEM: "skin cancer cell line, A431"
  IC50: "16 nM"
- COMPOUND: "C=CC(=O)Nc1cc2c(Nc3ccc(Br)cc3F)ncnc2cc1OCCNC(=O)C=CCC"
  TARGET_SYSTEM: "skin cancer cell line, A431"
  IC50: "37 nM"
- COMPOUND: "C=CC(=O)Nc1cc2c(Nc3ccc(Br)cc3F)ncnc2cc1OCCNc1nccs1"
  TARGET_SYSTEM: "skin cancer cell line, A431"
  IC50: "310 nM"
- COMPOUND: "C=CC(=O)Nc1cc2c(Nc3ccc(Br)cc3F)ncnc2cc1OCC1CCN(C(=O)CS(C)(=O)=O)CC1"
  TARGET_SYSTEM: "skin cancer cell line, A431"
  IC50: "48 nM"
- COMPOUND: "Clc1ccc(Nc2nnc(Cc3ccncc3)c3ccccc23)cc1 [Control 1, PTK787, reference compound]"
  TARGET_SYSTEM: "skin cancer cell line, A431"
  IC50: "10000 nM"
- COMPOUND: "C=CC(=O)Nc1cc2c(Nc3ccc(Br)cc3F)ncnc2cc1OCCNC(=O)c1cccs1"
  TARGET_SYSTEM: "skin cancer cell line, A431"
  IC50: "57 nM"
- COMPOUND: "C=CC(=O)Nc1cc2c(Nc3ccc(Br)cc3F)ncnc2cc1OCC1CCN(C(=O)C=C)CC1"
  TARGET_SYSTEM: "skin cancer cell line, A431"
  IC50: "37 nM"
- COMPOUND: "C=CC(=O)Nc1cc2c(Nc3ccc(Br)cc3F)ncnc2cc1OCCNC(=O)c1ccc[nH]1"
  TARGET_SYSTEM: "skin cancer cell line, A431"
  IC50: "408 nM"
- COMPOUND: "C=CC(=O)Nc1cc2c(Nc3ccc(Br)c(Cl)c3F)ncnc2cc1OCCNC(=O)NCC"
  TARGET_SYSTEM: "skin cancer cell line, A431"
  IC50: "12 nM"
- COMPOUND: "C=CC(=O)Nc1cc2c(Nc3ccc(Br)c(Cl)c3F)ncnc2cc1OCCNC(=O)N1CCOCC1"
  TARGET_SYSTEM: "skin cancer cell line, A431"
  IC50: "46 nM"
- COMPOUND: "C=CC(=O)Nc1cc2c(Nc3ccc(Br)cc3F)ncnc2cc1OCC(C)(C)NC(=O)CN(C)C"
  TARGET_SYSTEM: "skin cancer cell line, A431"
  IC50: "248 nM"
- COMPOUND: "C=CC(=O)Nc1cc2c(Nc3ccc(Br)cc3F)ncnc2cc1OCCNC(=O)CNC"
  TARGET_SYSTEM: "skin cancer cell line, A431"
  IC50: "125 nM"
- COMPOUND: "C=CC(=O)N(C)c1cc2c(Nc3ccc(Br)cc3F)ncnc2cc1OCCNC(C)=O"
  TARGET_SYSTEM: "skin cancer cell line, A431"
  IC50: "396 nM"
- COMPOUND: "C=CC(=O)Nc1cc2c(Nc3ccc(Br)cc3F)ncnc2cc1OCCNC(C)=O"
  TARGET_SYSTEM: "skin cancer cell line, A431"
  IC50: "15 nM"
- COMPOUND: "C=CC(=O)Nc1cc2c(Nc3ccc(Br)c(Cl)c3F)ncnc2cc1OCCNC(=O)COC"
  TARGET_SYSTEM: "skin cancer cell line, A431"
  IC50: "203 nM"
- COMPOUND: "C=CC(=O)Nc1cc2c(Nc3ccc(Br)cc3F)ncnc2cc1OCCNC(=O)C=NOC"
  TARGET_SYSTEM: "skin cancer cell line, A431"
  IC50: "365 nM"
- COMPOUND: "C=CC(=O)Nc1cc2c(Nc3cc(OC)c(Cl)cc3OC)ncnc2cc1OCCNC(=O)CN(C)C"
  TARGET_SYSTEM: "skin cancer cell line, A431"
  IC50: "30 nM"
- COMPOUND: "C=CC(=O)Nc1cc2c(Nc3ccc(Br)cc3F)ncnc2cc1OCCNC(=O)C(C)C"
  TARGET_SYSTEM: "skin cancer cell line, A431"
  IC50: "114 nM"
- COMPOUND: "C=CC(=O)Nc1cc2c(Nc3ccc(Br)c(F)c3F)ncnc2cc1OCCNC(=O)CN(C)C"
  TARGET_SYSTEM: "skin cancer cell line, A431"
  IC50: "19 nM"

* * *

Tested on: skin cancer cell line, A431
Experiment: Inhibitory effect on growth of cancer cell line A431, SRB
Type: cell-based
Details: Homo sapiens, A-431, 72 h, overexpressed EGFR1 (HER-1)
QUANTITY_KIND: log10(IC50) (log10 of the value in nM)

- MOLECULE: "C=CC(=O)Nc1cc2c(Nc3ccc(Br)cc3F)ncnc2cc1OCCNC(=O)C(C)N(C)C (centres unmarked)"
  VALUE: 2.06
- MOLECULE: "C=CC(=O)Nc1cc2c(Nc3ccc(Cl)cc3Cl)ncnc2cc1OCCNC(C)=O"
  VALUE: 1.76
- MOLECULE: "C=CC(=O)Nc1cc2c(Nc3ccc(Br)c(Cl)c3F)ncnc2cc1OCCNC(C)=O"
  VALUE: 1.08
- MOLECULE: "C=CC(=O)Nc1cc2c(Nc3ccc(Br)cc3F)ncnc2cc1OCC1=NCCO1"
  VALUE: 2.17
- MOLECULE: "C=CC(=O)Nc1cc2c(Nc3ccc(Br)cc3F)ncnc2cc1OCCNCC(C)=O"
  VALUE: 2.63
- MOLECULE: "C=CC(=O)Nc1cc2c(Nc3ccc(Br)cc3F)ncnc2cc1OC[C@H](C)NC(C)=O"
  VALUE: 2.05
- MOLECULE: "C=CC(=O)Nc1cc2c(Nc3ccc(Br)cc3F)ncnc2cc1OCCCNC(=O)CN(C)C"
  VALUE: 1.23
- MOLECULE: "C=CC(=O)Nc1cc2c(Nc3ccc(Br)cc3F)ncnc2cc1OCC1CCN(C(=O)C(F)(F)F)CC1"
  VALUE: 1.91
